target-entity: T1, cyno GPRC5D (cyno, UniProt Q9NZD1 1-343 (human entry))
T1 construct: on transfected HEK293F or Daudi cells; also called cynomolgus monkey GPRC5D
T1 chain: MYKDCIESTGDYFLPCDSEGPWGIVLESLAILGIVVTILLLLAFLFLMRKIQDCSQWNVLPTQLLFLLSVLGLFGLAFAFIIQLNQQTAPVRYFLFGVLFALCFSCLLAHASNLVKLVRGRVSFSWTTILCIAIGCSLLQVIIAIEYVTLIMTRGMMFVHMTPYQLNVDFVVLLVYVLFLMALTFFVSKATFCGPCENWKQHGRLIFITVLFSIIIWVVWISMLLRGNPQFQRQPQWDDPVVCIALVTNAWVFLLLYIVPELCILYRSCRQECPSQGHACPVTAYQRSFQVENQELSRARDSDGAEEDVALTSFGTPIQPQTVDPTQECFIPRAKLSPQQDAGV
assay-text: FACS, cyno GPRC5D cells, 1 ug/ml
measurement-type: MFI (MFI)
Unit MFI implied. Number only.

Completed entries (count: 3):
1. GC5B332 (antibody, IgG1, V domains shown, GC5H35+PH9L3 (L6); human IgG4PAA) VH: EVQLVQSGAEVKKPGESLKISCKGSGYSFTSYWIGWVRQMPGKGLEWMGIIYPGDSDTRYSPSFQGQVTISADKSISTAYLQWSSLKASDTAMYYCARIGFYGRSFRIFDYWGQGTLVTVSS VL: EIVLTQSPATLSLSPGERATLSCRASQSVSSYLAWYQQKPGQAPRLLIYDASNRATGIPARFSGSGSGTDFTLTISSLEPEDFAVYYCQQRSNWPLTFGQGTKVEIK    192000
2. GC5B252 (antibody, V domains shown, GC5H42+PH9L3) VH: QVQLVQSGAEVKKPGSSVKVSCKASGGTFSSYGISWVRQAPGQGLEWMGGIIPIFGNINYAQKFQGRVTITADESTSTAYMELSSLRSEDTAVYYCARVSRRFKRFAYYFDYWGQGTLVTVSS VL: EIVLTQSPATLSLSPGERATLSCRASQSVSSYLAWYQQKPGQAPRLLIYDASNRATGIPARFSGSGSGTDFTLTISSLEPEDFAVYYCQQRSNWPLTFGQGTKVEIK    63300
3. GC5B164 (antibody, IgG1, V domains shown, GC5H36+PH9L3 (L6); human IgG4PAA) VH: EVQLVQSGAEVKKPGESLKISCKGSGYSFTSYWIGWVRQMPGKGLEWMGIIYPGDSDTRYSPSFQGQVTISADKSISTAYLQWSSLKASDTAMYYCARVYSFGGRHKALFDYWGQGTLVTVSS VL: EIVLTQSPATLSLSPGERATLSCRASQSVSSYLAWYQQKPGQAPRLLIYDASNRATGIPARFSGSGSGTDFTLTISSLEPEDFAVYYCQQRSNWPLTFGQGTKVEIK    122000

Query binder follows.
# input binder: GC5B332 (printed with GC5H89) (antibody, V domains shown) VH: EVQLVQSGAEVKKPGESLKISCKGSGYSFTSYWIGWVRQMPGKGLEWMGIIYPGDSDTRYSPSFQGQVTISADKSISTAYLQWSSLKASDTAMYYCARIGFYGRSFRIFDYWGQGTLVTVSS VL: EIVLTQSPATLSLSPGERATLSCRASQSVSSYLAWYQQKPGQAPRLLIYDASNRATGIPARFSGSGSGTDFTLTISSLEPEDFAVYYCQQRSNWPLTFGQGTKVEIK ; wanted: its MFI 299

Sourced from patent US20180037651A1
